protocol.summary: in vivo
protocol.conditions: male, ICR, mouse, po, 3 mg/kg
measurement.name: Tmax (h)

>>> measurement("CC#CCn1c(N2CCC[C@@H](N)C2)nc2c1c(=O)n(Cc1nc(C)c3ccccc3n1)c(=O)n2C")
1
>>> measurement("CCOc1ccc(Cc2cc([C@@H]3O[C@H](CO)[C@@H](O)[C@H](O)[C@H]3O)ccc2Cl)cc1")
1
>>> measurement("OC[C@H]1O[C@@H](c2ccc(Cl)c(Cc3ccc(O[C@H]4CCOC4)cc3)c2)[C@H](O)[C@@H](O)[C@@H]1O")
1

====

protocol.conditions: normal mice, oral gavage, 3mg/kg; Kidney; 9h
measurement.name: Drug concentration, time course

[A] CC1(C)S[C@@H]2[C@H](NC(=O)[C@H](N)c3ccc(O)cc3)C(=O)N2[C@H]1C(=O)O [Amoxicillin, amoxicillin]
[B] COc1ccc2c(c1)c(CC(=O)O)c(C)n2C(=O)c1ccc(Cl)cc1 [Indomethacin, indomethacin]
Given the listed records, identify the one among A and B with higher Drug concentration, time course. // caller expects the label of the chosen entry
B
(B: 3880, A: 2340)
